# target-desc: C-X-C chemokine receptor type 4 (Homo sapiens, UniProt P61073)
# Sequence (P61073 whole entry): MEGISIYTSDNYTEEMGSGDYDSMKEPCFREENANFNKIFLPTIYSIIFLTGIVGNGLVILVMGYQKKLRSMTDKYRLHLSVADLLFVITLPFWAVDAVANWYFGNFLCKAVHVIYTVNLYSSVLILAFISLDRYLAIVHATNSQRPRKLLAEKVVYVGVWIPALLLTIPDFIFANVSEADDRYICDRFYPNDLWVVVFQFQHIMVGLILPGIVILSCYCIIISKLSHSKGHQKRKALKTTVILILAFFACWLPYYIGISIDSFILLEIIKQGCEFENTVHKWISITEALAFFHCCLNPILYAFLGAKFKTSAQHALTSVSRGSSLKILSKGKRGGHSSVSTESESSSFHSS
# test-name: Antagonist activity at CXCR4 in human CCRF-CEM cells assessed as inhibition of PE-conjugated 12G5 antibody binding
Residues, ends and D or L forms follow the SMILES beside them.
measurement-kind: IC50

// worked examples, IC50 included
>  <compound>
C[C@H](NC(=O)c1cccc(NC(=N)N)c1)C(=O)N[C@H]1CSSC[C@@H](C(=O)O)NC(=O)[C@H](Cc2ccccc2)NC(=O)[C@H](Cc2ccccc2)NC(=O)[C@H](CCCNC(=N)N)NC1=O (HELM PEPTIDE1{[N=C(N)Nc1cccc(C(=O)[*:2])c1].A.C.R.F.F.C}$PEPTIDE1,PEPTIDE1,3:R3-7:R3$$$V2.0)

>  <IC50>
3.2 µM

$$$$
>  <compound>
C[C@H](NC(=O)CCCNC(=N)N)C(=O)N[C@H]1CSSC[C@@H](C(=O)O)NC(=O)[C@H](Cc2ccccc2)NC(=O)[C@H](Cc2ccccc2)NC(=O)[C@H](CCCNC(=N)N)NC1=O (HELM PEPTIDE1{[N=C(N)NCCCC(=O)[*:2]].A.C.R.F.F.C}$PEPTIDE1,PEPTIDE1,3:R3-7:R3$$$V2.0)

>  <IC50>
> 10 µM

$$$$
>  <compound>
C[C@H](NC(=O)C1CCN(C(=N)N)CC1)C(=O)N[C@H]1CSSC[C@@H](C(=O)O)NC(=O)[C@H](Cc2ccccc2)NC(=O)[C@H](Cc2ccccc2)NC(=O)[C@H](CCCNC(=N)N)NC1=O (HELM PEPTIDE1{[N=C(N)N1CCC(C(=O)[*:2])CC1].A.C.R.F.F.C}$PEPTIDE1,PEPTIDE1,3:R3-7:R3$$$V2.0)

>  <IC50>
> 10 µM

$$$$
>  <compound>
C[C@@H]1NC(=O)[C@H](Cc2ccccc2)NC(=O)[C@@H](NC(=O)[C@H](CCCNC(=N)N)NC(=O)[C@@H](N)Cc2ccccc2)CSSC[C@@H](C(=O)O)NC(=O)[C@H](CCCNC(=N)N)NC1=O (HELM PEPTIDE1{F.R.C.F.A.R.C}$PEPTIDE1,PEPTIDE1,3:R3-7:R3$$$V2.0)

>  <IC50>
> 10 µM

$$$$
>  <compound>
C[C@H](NC(=O)[C@H](N)CCCNC(=N)N)C(=O)N[C@H]1CSSC[C@@H](C(=O)O)NC(=O)[C@H](Cc2ccccc2)NC(=O)[C@H](Cc2ccccc2)NC(=O)[C@H](CCCNC(=N)N)NC1=O

>  <IC50>
> 10 µM

$$$$

Pending compound:
Using the record for C[C@H](NC(=O)c1ccc(NC(=N)N)cc1)C(=O)N[C@H]1CSSC[C@@H](C(=O)O)NC(=O)[C@H](Cc2ccccc2)NC(=O)[C@H](Cc2ccccc2)NC(=O)[C@H](CCCNC(=N)N)NC1=O (HELM PEPTIDE1{[N=C(N)Nc1ccc(C(=O)[*:2])cc1].A.C.R.F.F.C}$PEPTIDE1,PEPTIDE1,3:R3-7:R3$$$V2.0) , state its measured IC50.
> 10 µM
